- Test system: CCRIS mutagenicity, Ames/micronucleus/aberration tests
- Protocol notes: CCRIS mutagenicity studies
- Condition parameters: Test System: AMES SALMONELLA TYPHIMURIUM; Strain/Indicator: TA1535; Metabolic Activation: RAT, LIVER, S-9, AROCLOR 1254; Method: STANDARD PLATE
Active and inactive are the calls of the source. No rule for the calls is given here.
Result category, one only: Y (active), N (inactive)

Lookup: How did this test come out for `NC(=O)c1cccc2cccnc12` ?
Found: N

Lookup: Kindly provide the recorded test outcome for the following compound: `CN(C)c1ccc(C(=C2C=CC(=[N+](C)C)C=C2)c2ccc(N(C)C)cc2)cc1`
Found: N

Lookup: For C1CCCCCC2OC2CCCC1 (configuration not stated) , which call appears in the assay record?
Found: N

Lookup: How did this test come out for `O=C(CBr)c1ccccc1` ?
Found: N

Lookup: Please indicate how the test categorized `COC(=O)[C@H]1O[C@@H]1c1ccccc1` .
Found: N

Lookup: # fetch the recorded call for `C[Si](C)(C)O[Si](C)(C)O[Si](C)(C)C` here
Found: N

Lookup: Would you mind telling me which call this test gave `O=C(O)CCCc1c[nH]c2ccccc12` ?
Found: N

Lookup: // return assay outcome for `COc1ccc(C(=O)n2ncc(Cl)c(Cl)c2=O)cc1`
Found: N

Lookup: Dear colleague, could you share the recorded outcome for `CC(C)CCC[C@@H](C)[C@H]1CC[C@H]2[C@@H]3C[C@@H](O)[C@@]4(O)C[C@@H](O)CC[C@]4(C)[C@H]3CC[C@]12C` when you have a moment?
Found: Y

Lookup: How did this test come out for `CCOC(=O)C(C)=O` ?
Found: N

Lookup: Answer briefly: the call reported for `COc1cc(-c2ccc(N)c(OC)c2)ccc1N` in this assay.
Found: Y

Lookup: What call does the record list for `CC(C)(C)N(CCO)CCO` ?
Found: N

Lookup: Outcome? `FC(F)(F)c1ccc(Cl)cc1`
Found: N

Lookup: // outcome(item) with item = `Cc1c(C)c(N)c(C)c(C)c1N`
Found: N

Lookup: Returns: the outcome recorded for `CSc1ccc(Cl)cc1` in this assay.
Found: N

Lookup: What is the recorded call for this compound in the test? `O=C(Cl)OCC1c2ccccc2-c2ccccc21`
Found: N

Lookup: Give the logged outcome of this assay for the following compound: `N=C1CCC(=N)c2c1c(O)c1ccccc1c2O`
Found: N

Lookup: Test call, this compound: `O=C(OCc1ccc(Cl)cc1Cl)c1cccc2cccnc12`
Found: N

Lookup: Name the outcome recorded for `O=C(CCl)CCl` in the assay.
Found: Y

Lookup: Hi, do you know how `C/C=C/c1ccc(O)c(OC)c1` came out in this test?
Found: N

Lookup: What was the test verdict on `COc1ccc(-c2coc3cc(O)cc(O)c3c2=O)cc1` ?
Found: N

Lookup: Please let me know the test result on file for `O=C(O)c1ccccn1` .
Found: N

Lookup: Status in this test for `Cc1c(N)cc([N+](=O)[O-])c(N)c1C` ?
Found: N

Lookup: Per the assay record, what outcome was assigned to `O=[N+]([O-])c1ccc2c(c1)Cc1ccccc1-2` ?
Found: N

Lookup: For `C[C@]12CC[C@H](OC(=O)/C=C/c3cccc(N(CCCl)CCCl)c3)CC1=CC[C@@H]1[C@@H]2CC[C@]2(C)NC(=O)CC[C@@H]12` , which call appears in the assay record?
Found: Y

Lookup: What was the test verdict on `C#C[C@]1(OC(C)=O)CC[C@H]2[C@@H]3CCC4=CC(=O)CC[C@@H]4[C@H]3CC[C@@]21C` ?
Found: N

Lookup: Hi, sorry to bother you, what did the test record for `Cc1nnc(NS(=O)(=O)c2ccc(N)cc2)s1` ?
Found: N
